System: MS2 coat protein
Assay: apparent KD of MS2 coat protein, switch ON state; designed switch direction (-1 OFF switch, 1 ON switch): -1; higher = weaker reporter binding
Conditions: FMN input: 0 or 200 uM; Eterna round: R93 (includes R88 designs)
Tag: 1.0 if measured apparent KD of MS2 coat protein is not below 40 nM, 0.0 if it is.

These recorded examples may help you get a feel for the data.
[[record]]
construct_sequence = "ACAGUUACAGGAUAUACAUGGGAAAAUAAAAAUAAAAAACUACAUGAGGAUCACCCAUGUAGAAGGGUAACUGA [Ex2 Design 198: Random 13]"
assigned_class = 1.0

[[record]]
construct_sequence = "AAGAAUCGAGGAUAUACAAGAAAGAAAGAAAAGAAAAGAAAACAUGAGGAUCACCCAUGUAGAAGGCGAUAGAA [EteRNA is fun!]"
assigned_class = 0.0

[[record]]
construct_sequence = "AAAAAGGCAGGAUAUACAAAAAAAUUUUUAAAAAAAAAAAAACAUGAGGAUCACCCAUGUAGAAGGGCCAAAAA [Ex 2.1]"
assigned_class = 1.0

[[record]]
construct_sequence = "CUCUUGUGAGGAUAUCCAAGAAAAGAAAAGAAAGAAAAGAAGGAGAAGGCACAUGAGGAUCACCCAUGUAAGAA [EteRNA is fun!]"
assigned_class = 0.0


Req: Is reported apparent KD of MS2 coat protein greater than or equal to 40 nM here: AAAAGGGCAGGAUAUGCGUACUCACGGGAAAGCUGGAUGGUACAUGAGGAUCACCCAUGUAGAAGGGCUAAAAA [Dora Explored 18 - Jieux - Exclusion 2]
Resp: 0.0

Req: Item: AAAAAAGGAGGAUAUACGUACAUGUCAAAAGACGUGAAGGGACAUGAGGAUCACCCAUGUAGAAGGCUUAAAAA [JL Stem Breaker 6]
Resp: 1.0

Req: Item: AAAAAACAUGAGGAUCACCCAUGUAAGGAUAUGCUCGUCAGUGCGAAAGCACAGAUGAGCAGAAGGUACAAAAA [66%, Wbt, 43]
Resp: 0.0

Cited source: the supplement of paper PMC9170038
